We begin with a simple list: items and their reported pEC50.
test system: hMPV B1; type: cell-based; conditions: Vero cells, plaque reduction
The star is where a group is joined. Succinyl(4-O-cholesteryl) = CC(C)CCC[C@@H](C)[C@H]1CC[C@H]2[C@@H]3CC=C4C[C@@H](OC(=O)CCC(=O)*)CC[C@]4(C)[C@H]3CC[C@]12C
Please express pEC50 as -log10 of the molar concentration.

These recorded examples may help you get a feel for the data.
Ac-WDEFDASISQVNEKINQSLEEIRKSDELLHNVNAGLGSGSGK(Succinyl(4-O-cholesteryl))-NH2 [Compound 27]	7.98
Ac-FDEEISQVNEKINQSLAFIRKSDELLHNVNAGKSTTEAAAKK(Succinyl(4-O-cholesteryl))-NH2 [Compound 26]	8.55
Ac-LVKKIDEFDASISQVNEKINQSLEEIRKSDELLHNVGSGSGK(Succinyl(4-O-cholesteryl))-NH2 [Compound 29]	7.96

// query # query: pEC50 of entry Ac-WDEFDASISQVNEKINQSLEEIRKSDELLHNVNALEAAAKK(Succinyl(4-O-cholesteryl))-NH2 [Compound 38]
// result 7.78

// query Quick check: pEC50 of Ac-SLEQVNEKINQSLAFIRKSDEINQSDEEVNKSDELLEAAAKK-NH2 [Compound 50] ?
// result 8.23
